Give measured EC50 for each item. Keep answers brief.
Target System: T1, T11 (Tn-MUC1) (PAPGSTAPPAHGVT(α-GalNAc)SAPDT(α-GalNAc)RPAPG-OH)
T1 peptide: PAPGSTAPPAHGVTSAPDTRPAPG
Method Notes: glycopeptide array
Please state the figure in µg/mL; there is no need to write the unit.

(Q) Write down EC50 measured for item 170 (antibody, V domains shown) VH: QVQLVQSGAEVKKPGASVQVSCKASGYTFINYYLQWVRQAPGQGLEWMGTINPFDGSTHYAQKFQGRVTMTRDTSTNTVYMELNSLRSEDTAVYYCARDRMIGYVLFDYWGQGTLVTVSS
(A) 0.141

(Q) Write down EC50 measured for item 102 (antibody, V domains shown) VH: QVQLVQSGAEVKKSGASVKVSCKASGYPFISYYIHWLRQAPGQGLTWMGVINPFDGSTDYAQKFQGRVTVTRDTSTSTVYMDLSSLRADDTAIYYCARDYMRGYVVFDYWGQGTLVTVSS
(A) 0.111

(Q) Write down EC50 measured for item 186 (antibody, V domains shown) VH: QVQLVQSGAEVKKPGASVKVSCKASGYTFNRYYIHWVRQAPGQGLEWMGVINPYDGSTNYAQKFRGRITMTRDTSTNTVYMDLSSLRSEDTAVYFCARDAMEGDSYLDNWGRGTLVTVSS
(A) 0.213

(Q) Write down EC50 measured for item 94 (antibody, V domains shown) VH: QVQLVQSGAEVKKPGSSVKVSCKASGYTFNSYYIHWVRQAPGQGLTWMGVINPFDGSTDYAQKFQGRVTMTRDTSTSTVYMDLSSLRSEDTAVYYCARDYMRGYVVFDYWGRGTLVTVSS
(A) 0.04
